All figures here come from PubChem BioAssay (NCI).

# reported TGI; entries follow
System: OVCAR-4 ovarian
Assay: NCI tumour cell line growth inhibition, 48 h
MEASUREMENT TYPE: TGI

COMPOUND: CC(=O)Oc1cc(S(=O)(=O)Nc2n[nH]c(N)n2)c(S)cc1Cl
MEASUREMENT TYPE: TGI
VALUE MEASURED: > 100 µM
--
COMPOUND: Cc1ccc(-n2cc(-c3ccc(Cl)cc3)c(C#N)c2N)cc1
MEASUREMENT TYPE: TGI
VALUE MEASURED: 28.4 µM
--
COMPOUND: Cc1ncc(CO)c(C=NCCCCCCN=Cc2c(CO)cnc(C)c2O)c1O
MEASUREMENT TYPE: TGI
VALUE MEASURED: > 100 µM
--
COMPOUND: C[N+]12CCCCC1C(CN1C(=O)c3ccccc3C1=O)CCC2 (configuration not stated)
MEASUREMENT TYPE: TGI
VALUE MEASURED: > 100 µM
--
COMPOUND: COc1ccc2c(c1OC)C(=O)O[C@@H]2[C@H]1c2c(c(Br)c3c(c2OC)OCO3)CCN1C
MEASUREMENT TYPE: TGI
VALUE MEASURED: > 100 µM
--
COMPOUND: O=S(=O)(N/N=C/c1ccc(Cl)cc1Cl)c1ccccc1
MEASUREMENT TYPE: TGI
VALUE MEASURED: > 100 µM
--
COMPOUND: NS(=O)(=O)c1ccc(N2N=C(c3cccs3)CC2c2ccccc2O)cc1 (configuration not stated)
MEASUREMENT TYPE: TGI
VALUE MEASURED: > 33.3 µM
--
COMPOUND: COC1C(O)C(C)OC(O[C@@H]2C[C@H]3CC[C@@H]4[C@H](CC[C@]5(C)[C@@H](C6=CC(=O)OC6)CC[C@]45O)[C@@]3(C)[C@H](O)C2)C1O (some centres not stated)
MEASUREMENT TYPE: TGI
VALUE MEASURED: 0.0379 µM
--
COMPOUND: NCCSC(C[N+](=O)[O-])c1ccccc1Cl (configuration not stated)
MEASUREMENT TYPE: TGI
VALUE MEASURED: 30.1 µM
--
COMPOUND: c1ccc(/C(=N\Nc2ccc3ccccc3n2)c2ccccn2)cc1
MEASUREMENT TYPE: TGI
VALUE MEASURED: > 100 µM
--
COMPOUND: O=C(O)c1cc(=O)c2cc(C(=O)c3cccs3)c(Cl)c(Cl)c2o1
MEASUREMENT TYPE: TGI
VALUE MEASURED: > 100 µM
--
COMPOUND: CCCc1cc(-c2ccc(-c3cc(CCC)c(C=O)[nH]3)s2)[nH]c1C=O
MEASUREMENT TYPE: TGI
VALUE MEASURED: > 100 µM
--
COMPOUND: Nc1ccc(C2=Nc3ccccc3SC(c3ccccc3O)C2)cc1 (configuration not stated)
MEASUREMENT TYPE: TGI
VALUE MEASURED: > 100 µM
--
COMPOUND: CCOC(=O)Oc1ccc2c(c1)c(=O)c1c(NCCCN(CC)CC)ccc3nnn2c31
MEASUREMENT TYPE: TGI
VALUE MEASURED: 20.2 µM
--
COMPOUND: Cc1nc2nn(C)cc2c(=O)n1/N=C/c1ccccc1
MEASUREMENT TYPE: TGI
VALUE MEASURED: > 100 µM
--
COMPOUND: COc1ccc2c(c1)C=C1CSCC3=Cc4cc(OC)ccc4OC13O2
MEASUREMENT TYPE: TGI
VALUE MEASURED: > 100 µM
--
COMPOUND: O=[N+]([O-])c1cc2c(ccc3occc32)o1
MEASUREMENT TYPE: TGI
VALUE MEASURED: > 100 µM
--
COMPOUND: CN1CCCC(C(=O)OCC(=O)C2(O)CCC3C4CCC5=CC(=O)CCC5(C)C4C(O)CC32C)C1 (configuration not stated)
MEASUREMENT TYPE: TGI
VALUE MEASURED: 32.5 µM
--
COMPOUND: CCc1c2c(nc3ccc(OCc4ccc(B5OC(C)(C)C(C)(C)O5)cc4)cc13)-c1cc3c(c(=O)n1C2)COC(=O)[C@]3(O)CC
MEASUREMENT TYPE: TGI
VALUE MEASURED: > 100 µM
--
COMPOUND: CCCCCCC(=O)OC[n+]1cccc(-c2c(COC(=O)NC(C)C)c(COC(=O)NC(C)C)c3n2CCC3)c1
MEASUREMENT TYPE: TGI
VALUE MEASURED: > 69.1 µM
--
COMPOUND: Cc1ccc(F)c2c(=O)cc(-c3ccccc3)[nH]c12
MEASUREMENT TYPE: TGI
VALUE MEASURED: > 100 µM
--
COMPOUND: CC(Cc1ccc2c(c1)OCO2)N(C)C(=O)C1=CCN(C)CC1 (configuration not stated)
MEASUREMENT TYPE: TGI
VALUE MEASURED: > 100 µM
--
COMPOUND: c1ccc(CSC(SCc2ccccc2)c2ccc3c(c2)OCO3)cc1
MEASUREMENT TYPE: TGI
VALUE MEASURED: > 10 µM
--
COMPOUND: O=c1oc2c(ccc3c(O)cccc32)c2c1CCCC2
MEASUREMENT TYPE: TGI
VALUE MEASURED: > 100 µM
--
COMPOUND: O=C1C(NS(=O)(=O)c2ccccc2)=C(N(Cc2ccccc2)Cc2ccccc2)C(=O)c2ccccc21
MEASUREMENT TYPE: TGI
VALUE MEASURED: 59 µM
--
COMPOUND: CCCCCCCCCCCCCCCCCc1nnc(N)o1
MEASUREMENT TYPE: TGI
VALUE MEASURED: > 100 µM
--
COMPOUND: O=C(O)CN=c1c2ccccc2n(O)c2ccccc12
MEASUREMENT TYPE: TGI
VALUE MEASURED: > 100 µM
--
COMPOUND: CCCCN(CCCC)CCC(O)c1cc2ccc(C(F)(F)F)cc2c2cc(C(F)(F)F)ccc12 (configuration not stated)
MEASUREMENT TYPE: TGI
VALUE MEASURED: 13.1 µM
--
COMPOUND: CN(CCO)/N=N/c1nc[nH]c1C(N)=O
MEASUREMENT TYPE: TGI
VALUE MEASURED: > 100 µM
--
COMPOUND: CCOC(=O)/C(=N/Nc1ccc(Cl)cc1)N1C(=S)C=C(C)NN(C)C1=S
MEASUREMENT TYPE: TGI
VALUE MEASURED: > 100 µM
--
COMPOUND: COc1ccc(CN=C(N)N=C(N)N)cc1OC
MEASUREMENT TYPE: TGI
VALUE MEASURED: > 1000 µM
--
COMPOUND: CC(C)OP(=O)(OC(C)C)C(Nc1cccc(C(F)(F)F)c1)c1ccccc1 (configuration not stated)
MEASUREMENT TYPE: TGI
VALUE MEASURED: > 100 µM
--
COMPOUND: CN(C)CC1=Nc2cccc3cccc(c23)N1
MEASUREMENT TYPE: TGI
VALUE MEASURED: 26.6 µM
--
COMPOUND: Cc1cc(C#N)c(Nc2ccccc2[N+](=O)[O-])s1
MEASUREMENT TYPE: TGI
VALUE MEASURED: > 100 µM
--
COMPOUND: CCOC(=O)C(=O)Nc1cccc(C)c1C
MEASUREMENT TYPE: TGI
VALUE MEASURED: > 100 µM
--
COMPOUND: CC(=O)O[C@H]1CC[C@@]2(C)C(=C/C(=N\[N+](=O)[O-])[C@H]3C4CCC([C@H](C)CCCC(C)C)[C@@]4(C)CCC32)C1 (some centres not stated)
MEASUREMENT TYPE: TGI
VALUE MEASURED: > 100 µM
--
COMPOUND: CCCC(CCC)C(=O)OCC1(CO)C/C(=C\c2ccc(C(F)(F)F)cc2)C(=O)O1 (configuration not stated)
MEASUREMENT TYPE: TGI
VALUE MEASURED: 34.4 µM
--
COMPOUND: COc1cccc(C(=O)N[C@@H]2[C@H](O)[C@@H](CO)O[C@H]2n2cnc3c(N)ncnc32)c1
MEASUREMENT TYPE: TGI
VALUE MEASURED: > 100 µM
--
COMPOUND: O=[N+]([O-])c1ccc2[nH]c(O)c(N=NC(=S)Nc3ccccc3)c2c1
MEASUREMENT TYPE: TGI
VALUE MEASURED: 29.2 µM
--
COMPOUND: CC#Cc1c(C#CC)c(OC)c2c(c1OC)C(=O)c1ccccc1C2=O
MEASUREMENT TYPE: TGI
VALUE MEASURED: > 100 µM
--
COMPOUND: O=C1OC(OC/C(Br)=C(/Br)COC2OC(=O)C(Cl)=C2Cl)C(Cl)=C1Cl (configuration not stated)
MEASUREMENT TYPE: TGI
VALUE MEASURED: 20.1 µM
--
COMPOUND: COc1ccc(/C=C(\Cl)c2ccc(OC)cc2)cc1
MEASUREMENT TYPE: TGI
VALUE MEASURED: > 100 µM
